Sourced from paper PMC9338942

# test.description: in vitro
# condition.description: African green monkey, CC50, vero cells, assay with Delta var (B.1.617.2)
Measured CC50 of individual entries

[
  {
    "compound": "CC(=O)c1c(O)c(C)c(O)c2c1OC1=CC(=O)C(C(C)=O)C(=O)[C@@]12C (single isomer, unassigned; (+)) [(+)-usnic acid]",
    "CC50": "> 50 µM"
  },
  {
    "compound": "Cc1cccc(C)c1OCC(=O)N[C@@H](Cc1ccccc1)[C@@H](O)C[C@H](Cc1ccccc1)NC(=O)[C@H](C(C)C)N1CCCNC1=O [lopinavir]",
    "CC50": "> 50 µM"
  }
]

----------
# test.description: in vitro
# condition.description: African green monkey, CC50, vero cells, assay with original SARS-CoV-2 strain
measure: CC50

[
  {
    "compound": "Cc1cccc(C)c1OCC(=O)N[C@@H](Cc1ccccc1)[C@@H](O)C[C@H](Cc1ccccc1)NC(=O)[C@H](C(C)C)N1CCCNC1=O [lopinavir]",
    "measure": "CC50",
    "result": "> 150 µM"
  },
  {
    "compound": "CC(=O)c1c(O)c(C)c(O)c2c1OC1=CC(=O)C(C(C)=O)C(=O)[C@@]12C (single isomer, unassigned; (+)) [(+)-usnic acid]",
    "measure": "CC50",
    "result": "> 50 µM"
  }
]

----------
# Test system: vero cells
# condition.description: vero cells, assay with Delta var (B.1.617.2)
measure: CC50

[
  {
    "compound": "CCC(CC)COC(=O)[C@H](C)N[P@](=O)(OC[C@H]1O[C@@](C#N)(c2ccc3c(N)ncnn23)[C@H](O)[C@@H]1O)Oc1ccccc1",
    "result": "> 50 µM"
  },
  {
    "compound": "CCN(CC)CCCC(C)Nc1ccnc2cc(Cl)ccc12 (centres unmarked)",
    "result": "> 150 µM"
  }
]

----------
Reported CC50 by item:
# test.description: in vitro
# condition.description: African green monkey, CC50, vero cells, assay with Beta var (B.1.351)
measure: CC50 (µM)

[
  {
    "compound": "CC(=O)c1c(O)c(C)c(O)c2c1OC1=CC(=O)C(C(C)=O)C(=O)[C@@]12C (single isomer, unassigned; (+)) [(+)-usnic acid]",
    "measure": "CC50",
    "units.symbol": "µM",
    "rel": "=",
    "numeric.result": 32.4
  },
  {
    "compound": "Cc1cccc(C)c1OCC(=O)N[C@@H](Cc1ccccc1)[C@@H](O)C[C@H](Cc1ccccc1)NC(=O)[C@H](C(C)C)N1CCCNC1=O [lopinavir]",
    "measure": "CC50",
    "units.symbol": "µM",
    "rel": ">",
    "numeric.result": 50
  }
]

----------
# test.description: in vitro
# condition.description: African green monkey, CC50, vero cells, assay with Alpha var (B.1.1.7)

[
  {
    "compound": "Cc1cccc(C)c1OCC(=O)N[C@@H](Cc1ccccc1)[C@@H](O)C[C@H](Cc1ccccc1)NC(=O)[C@H](C(C)C)N1CCCNC1=O",
    "rel": ">",
    "CC50 / µM": 50
  },
  {
    "compound": "CC(=O)c1c(O)c(C)c(O)c2c1OC1=CC(=O)C(C(C)=O)C(=O)[C@@]12C (single isomer, unassigned; (+)) [(+)-usnic acid]",
    "rel": "=",
    "CC50 / µM": 34.8
  }
]
